Would you kindly list growth, % of control at 0.3 µM for each of these compounds?
- Tested on: ACHN
- MEASUREMENT_DESCRIPTION: Growth of human ACHN cells at 0.3 uM after 48 hrs by SRB assay
Enter your answer as a number in %; do not include the unit.

Inquiry: Retrieve growth, % of control at 0.3 µM measured for CCCCCCCCCCCCCCCCS(=O)(=O)NCCC[N+](C)(C)CC and print it.
Reply text: 90.6

Inquiry: Retrieve growth, % of control at 0.3 µM measured for CCCCCCCCCCCCCCCCS(=O)(=O)NCC(C)(C)C[N+](C)(C)C and print it.
Reply text: 114

Inquiry: Retrieve growth, % of control at 0.3 µM measured for CCCCCCCCCCCCCCS(=O)(=O)N(C)CC[N+](C)(CC)CC and print it.
Reply text: 102

Inquiry: Retrieve growth, % of control at 0.3 µM measured for C=CC[N+](CC)(CC)CCN(C)S(=O)(=O)CCCCCCCCCCCCCCCC and print it.
Reply text: 88.2

Inquiry: Retrieve growth, % of control at 0.3 µM measured for CCCCCCCCCCCCCCCCS(=O)(=O)NCCC[N+](C)(C)C and print it.
Reply text: 119

Inquiry: Retrieve growth, % of control at 0.3 µM measured for CCCCCCCCCCCCCCS(=O)(=O)NCC(C)(C)C[N+](C)(C)CC and print it.
Reply text: 97.7

Inquiry: Retrieve growth, % of control at 0.3 µM measured for CCCCCCCCCCCCCCS(=O)(=O)N(C)CC[N+](C)(C)CC and print it.
Reply text: 104

Inquiry: Retrieve growth, % of control at 0.3 µM measured for CCCCCCCCCCCCCCCCS(=O)(=O)N(C)CC[N+](C)(CC)CC and print it.
Reply text: 89.5

Inquiry: Retrieve growth, % of control at 0.3 µM measured for CCCCCCCCCCCCCCS(=O)(=O)N(C)CC[N+](C)(C)C and print it.
Reply text: 100

Inquiry: Retrieve growth, % of control at 0.3 µM measured for CCCCCCCCCCCCCCS(=O)(=O)N(C)CCC[N+](C)(C)C and print it.
Reply text: 93.4

Inquiry: Retrieve growth, % of control at 0.3 µM measured for C=CC[N+](C)(C)CCN(C)S(=O)(=O)CCCCCCCCCCCCCCCC and print it.
Reply text: 130

Inquiry: Retrieve growth, % of control at 0.3 µM measured for CCCCCCCCCCCCCCS(=O)(=O)NCC(C)(C)C[N+](C)(C)C and print it.
Reply text: 84.8

Inquiry: Retrieve growth, % of control at 0.3 µM measured for CCCCCCCCCCCCCCCCS(=O)(=O)N(C)CC[N+](C)(C)CC and print it.
Reply text: 93.9

###

- Tested on: NCI-H23
- MEASUREMENT_DESCRIPTION: Growth inhibition of human NCI-H23 cells at 1 uM after 48 hrs by SRB assay; values are per cent of control
- TEST_PARAMETERS: NCI-H23, 48 h
Would you kindly list growth, % of control at 1 µM for each of these compounds?
Please provide the amount together with its unit, number first.

Inquiry: Retrieve growth, % of control at 1 µM measured for C=CC[N+](C)(C)CCN(C)S(=O)(=O)CCCCCCCCCCCCCCCC and print it.
Reply text: 69.8%

Inquiry: Retrieve growth, % of control at 1 µM measured for CCCCCCCCCCCCCCS(=O)(=O)N(C)CC[N+](C)(C)CC and print it.
Reply text: 86.6%

Inquiry: Retrieve growth, % of control at 1 µM measured for CCCCCCCCCCCCCCCCS(=O)(=O)NCC(C)(C)C[N+](C)(C)CC and print it.
Reply text: 50.5%

Inquiry: Retrieve growth, % of control at 1 µM measured for CCCCCCCCCCCCCCCCS(=O)(=O)N(C)CC[N+](CC)(CC)CC and print it.
Reply text: 44.3%

Inquiry: Retrieve growth, % of control at 1 µM measured for CCCCCCCCCCCCCCS(=O)(=O)NCCC[N+](C)(C)CC and print it.
Reply text: 24%

Inquiry: Retrieve growth, % of control at 1 µM measured for CCCCCCCCCCCCCCCCS(=O)(=O)N(C)CC[N+](C)(C)C and print it.
Reply text: 80.3%

Inquiry: Retrieve growth, % of control at 1 µM measured for CCCCCCCCCCCCCCCCS(=O)(=O)N(C)CC[N+](C)(CC)CC and print it.
Reply text: 51.3%

Inquiry: Retrieve growth, % of control at 1 µM measured for CCCCCCCCCCCCCCS(=O)(=O)NCCC[N+](C)(C)C and print it.
Reply text: 48.4%

Inquiry: Retrieve growth, % of control at 1 µM measured for CCCCCCCCCCCCCCCCS(=O)(=O)NCCC[N+](C)(C)CC and print it.
Reply text: 73.4%

Inquiry: Retrieve growth, % of control at 1 µM measured for CCCCCCCCCCCCCCS(=O)(=O)N(C)CCC[N+](C)(C)CC and print it.
Reply text: 38.4%

Inquiry: Retrieve growth, % of control at 1 µM measured for CCCCCCCCCCCCCCS(=O)(=O)N(C)CC[N+](C)(C)C and print it.
Reply text: 86.3%

###

- Test system: NUGC-3
- MEASUREMENT_DESCRIPTION: Growth inhibition of human NUGC3 cells at 10 uM after 48 hrs by SRB assay; values are per cent of control
- TEST_PARAMETERS: NUGC-3, 48 h
Would you kindly list growth, % of control at 10 µM for each of these compounds?
Enter your answer as a number in %; do not include the unit.

Inquiry: Retrieve growth, % of control at 10 µM measured for CCCCCCCCCCCCCCCCS(=O)(=O)N(C)CC[N+](C)(C)C and print it.
Reply text: 2.7

Inquiry: Retrieve growth, % of control at 10 µM measured for CCCCCCCCCCCCCCS(=O)(=O)NCC(C)(C)C[N+](C)(C)C and print it.
Reply text: -8.2

Inquiry: Retrieve growth, % of control at 10 µM measured for CCCCCCCCCCCCCCS(=O)(=O)N(C)CCC[N+](C)(C)CC and print it.
Reply text: -18.3

Inquiry: Retrieve growth, % of control at 10 µM measured for CCCCCCCCCCCCCCS(=O)(=O)N(C)CCC[N+](C)(C)C and print it.
Reply text: -12.9

Inquiry: Retrieve growth, % of control at 10 µM measured for CCCCCCCCCCCCCCS(=O)(=O)N(C)CC[N+](C)(C)C and print it.
Reply text: 9

Inquiry: Retrieve growth, % of control at 10 µM measured for C=CC[N+](C)(C)CCN(C)S(=O)(=O)CCCCCCCCCCCCCCCC and print it.
Reply text: 9.4

###

- Tested on: MDA-MB-231
- MEASUREMENT_DESCRIPTION: Growth inhibition of human MDA-MB-231 cells at 0.3 uM after 48 hrs by SRB assay; values are per cent of control
- TEST_PARAMETERS: MDA-MB-231, 48 h
Would you kindly list growth, % of control at 0.3 µM for each of these compounds?
Enter your answer as a number in %; do not include the unit.

Inquiry: Retrieve growth, % of control at 0.3 µM measured for C=CC[N+](CC)(CC)CCN(C)S(=O)(=O)CCCCCCCCCCCCCCCC and print it.
Reply text: 97

Inquiry: Retrieve growth, % of control at 0.3 µM measured for C=CC[N+](C)(C)CCN(C)S(=O)(=O)CCCCCCCCCCCCCCCC and print it.
Reply text: 104

Inquiry: Retrieve growth, % of control at 0.3 µM measured for CCCCCCCCCCCCCCCCS(=O)(=O)N(C)CC[N+](C)(C)CC and print it.
Reply text: 77.8

Inquiry: Retrieve growth, % of control at 0.3 µM measured for CCCCCCCCCCCCCCS(=O)(=O)NCCC[N+](C)(C)CC and print it.
Reply text: 86.4

Inquiry: Retrieve growth, % of control at 0.3 µM measured for CCCCCCCCCCCCCCCCS(=O)(=O)NCCC[N+](C)(C)CC and print it.
Reply text: 75.7

Inquiry: Retrieve growth, % of control at 0.3 µM measured for CCCCCCCCCCCCCCS(=O)(=O)N(C)CCC[N+](C)(C)C and print it.
Reply text: 98.1

Inquiry: Retrieve growth, % of control at 0.3 µM measured for CCCCCCCCCCCCCCS(=O)(=O)N(C)CC[N+](C)(CC)CC and print it.
Reply text: 101

Inquiry: Retrieve growth, % of control at 0.3 µM measured for CCCCCCCCCCCCCCCCS(=O)(=O)N(C)CCC[N+](C)(C)C and print it.
Reply text: 92.3

Inquiry: Retrieve growth, % of control at 0.3 µM measured for CCCCCCCCCCCCCCCCS(=O)(=O)NCC(C)(C)C[N+](C)(C)C and print it.
Reply text: 95

Inquiry: Retrieve growth, % of control at 0.3 µM measured for CCCCCCCCCCCCCCCCS(=O)(=O)N(C)CC[N+](C)(C)C and print it.
Reply text: 95.7

Inquiry: Retrieve growth, % of control at 0.3 µM measured for C=CC[N+](C)(C)CCN(C)S(=O)(=O)CCCCCCCCCCCCCC and print it.
Reply text: 107

Inquiry: Retrieve growth, % of control at 0.3 µM measured for CCCCCCCCCCCCCCCCS(=O)(=O)N(C)CCC[N+](C)(C)CC and print it.
Reply text: 89.2

Inquiry: Retrieve growth, % of control at 0.3 µM measured for CCCCCCCCCCCCCCS(=O)(=O)N(C)CC[N+](CC)(CC)CC and print it.
Reply text: 95.3

Inquiry: Retrieve growth, % of control at 0.3 µM measured for CCCCCCCCCCCCCCCCS(=O)(=O)N(C)CC[N+](C)(CC)CC and print it.
Reply text: 96.2

Inquiry: Retrieve growth, % of control at 0.3 µM measured for CCCCCCCCCCCCCCS(=O)(=O)N(C)CCC[N+](C)(C)CC and print it.
Reply text: 91.4

Inquiry: Retrieve growth, % of control at 0.3 µM measured for CCCCCCCCCCCCCCS(=O)(=O)N(C)CC[N+](C)(C)CC and print it.
Reply text: 91.6

Inquiry: Retrieve growth, % of control at 0.3 µM measured for CCCCCCCCCCCCCCS(=O)(=O)NCCC[N+](C)(C)C and print it.
Reply text: 86.4

Inquiry: Retrieve growth, % of control at 0.3 µM measured for C=CC[N+](CC)(CC)CCN(C)S(=O)(=O)CCCCCCCCCCCCCC and print it.
Reply text: 87.4

Inquiry: Retrieve growth, % of control at 0.3 µM measured for CCCCCCCCCCCCCCS(=O)(=O)NCC(C)(C)C[N+](C)(C)C and print it.
Reply text: 88.5

Inquiry: Retrieve growth, % of control at 0.3 µM measured for CCCCCCCCCCCCCCCCS(=O)(=O)NCCC[N+](C)(C)C and print it.
Reply text: 108

Inquiry: Retrieve growth, % of control at 0.3 µM measured for CCCCCCCCCCCCCCS(=O)(=O)NCC(C)(C)C[N+](C)(C)CC and print it.
Reply text: 89.3

Inquiry: Retrieve growth, % of control at 0.3 µM measured for CCCCCCCCCCCCCCCCS(=O)(=O)NCC(C)(C)C[N+](C)(C)CC and print it.
Reply text: 103

Inquiry: Retrieve growth, % of control at 0.3 µM measured for CCCCCCCCCCCCCCCCS(=O)(=O)N(C)CC[N+](CC)(CC)CC and print it.
Reply text: 96.5

Inquiry: Retrieve growth, % of control at 0.3 µM measured for CCCCCCCCCCCCCCS(=O)(=O)N(C)CC[N+](C)(C)C and print it.
Reply text: 98.2
